target: Muscarinic acetylcholine receptor; test: Receptor binding affinity against Muscarinic acetylcholine receptor from guinea pig cerebral cortex was determined using [3H]- QNB as radioligand; assay type: tissue-based, Cavia porcellus
// class assignment uses Ki with these ranges: low band (below 0.2 µM), middle band (0.2 µM to below 0.4 µM), high band (0.4 µM or more)

Reference set (5 entries):
MOL_SMILES	SYSTEM_NAME	CAT
OCc1cccc2cc(C3=CN4CCC3CC4)oc12	Muscarinic acetylcholine receptor	middle band
Nc1ccc2oc(C3=CN4CCC3CC4)cc2c1	Muscarinic acetylcholine receptor	middle band
OCc1cc(I)cc2cc(C3=CN4CCC3CC4)oc12	Muscarinic acetylcholine receptor	high band
C1=C(c2cc3ncccc3o2)C2CCN1CC2	Muscarinic acetylcholine receptor	low band
COc1cc(CO)cc2cc(C3=CN4CCC3CC4)oc12	Muscarinic acetylcholine receptor	high band

**Q:** Could you tell me which band "N#Cc1cc(I)c2oc(C3=CN4CCC3CC4)cc2c1" belongs to?
**A:** high band

**Q:** Could you tell me which band "Fc1ccc2oc(C3=CN4CCC3CC4)cc2c1" belongs to?
**A:** low band

**Q:** Could you tell me which band "O=[N+]([O-])c1ccc2oc(C3=CN4CCC3CC4)cc2c1" belongs to?
**A:** low band

**Q:** Could you tell me which band "OCc1ccc2oc(C3=CN4CCC3CC4)cc2c1" belongs to?
**A:** high band

src = ChEMBL document CHEMBL1129078
